targetSystem: 5-hydroxytryptamine receptor 1A (Rattus norvegicus) (UniProt P19327)
Sequence (P19327 whole entry): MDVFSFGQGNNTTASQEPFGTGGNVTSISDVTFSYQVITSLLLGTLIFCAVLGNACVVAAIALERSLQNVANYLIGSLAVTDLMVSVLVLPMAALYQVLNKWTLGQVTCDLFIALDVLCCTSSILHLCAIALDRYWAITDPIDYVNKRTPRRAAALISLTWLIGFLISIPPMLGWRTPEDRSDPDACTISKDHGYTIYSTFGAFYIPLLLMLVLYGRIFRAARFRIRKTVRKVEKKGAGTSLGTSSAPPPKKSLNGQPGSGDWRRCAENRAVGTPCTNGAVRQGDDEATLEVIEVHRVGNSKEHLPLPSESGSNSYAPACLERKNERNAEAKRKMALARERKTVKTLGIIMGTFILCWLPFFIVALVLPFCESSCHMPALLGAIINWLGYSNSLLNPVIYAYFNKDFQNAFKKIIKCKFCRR
methodSummary: Displacement of [3H]-8-OH-DPAT from 5-HT1A receptor in rat hippocampal membranes by liquid scintillation counting
Format: cell membranes
experimentalContext: Hippocampus, Membrane
quantityName: Ks (nM)

Example compounds with recorded Ks:
{"compound": "COC(=O)CN1C(=O)N(CC(O)CN2CCN(c3ccccc3OC)CC2)C(c2ccccc2)(c2ccccc2)C1=O (racemic)", "Ks / nM": 86}
{"compound": "CCOc1ccccc1N1CCN(CC(O)CN2C(=O)N(C)C(=O)C2(c2ccccc2)c2ccccc2)CC1 (racemic)", "Ks / nM": 7}
{"compound": "CCOc1ccccc1N1CCN(CC(CN2C(=O)N(C)C(=O)C2(c2ccccc2)c2ccccc2)OC(C)=O)CC1 (racemic)", "Ks / nM": 38}
{"compound": "CCOC(=O)C(C)N1C(=O)N(CC(O)CN2CCN(c3ccccc3OC)CC2)C(c2ccccc2)(c2ccccc2)C1=O (racemic)", "Ks / nM": 30}
{"compound": "O=C1NC(=O)C(c2ccccc2)(c2ccccc2)N1CC(O)CN1CCN(c2ccccc2)CC1 (racemic)", "Ks / nM": 573}
{"compound": "CCOc1ccccc1N1CCN(CC(O)CN2C(=O)N(C(C)C(=O)OC)C(=O)C2(c2ccccc2)c2ccccc2)CC1 (racemic)", "Ks / nM": 28}
{"compound": "CCOc1ccccc1N1CCN(CC(O)CN2C(=O)NC(=O)C2(c2ccccc2)c2ccccc2)CC1 (racemic)", "Ks / nM": 83}
{"compound": "COc1ccccc1N1CCN(CC(O)CN2C(=O)NC(=O)C2(c2ccccc2)c2ccccc2)CC1 (racemic)", "Ks / nM": 95}

[A] CCOC(=O)CN1C(=O)N(CC(O)CN2CCN(c3ccccc3OC)CC2)C(c2ccccc2)(c2ccccc2)C1=O (racemic)
[B] COc1ccccc1N1CCN(CC(O)CN2C(=O)N(C)C(=O)C2(c2ccccc2)c2ccccc2)CC1 (racemic)
[C] CCOc1ccccc1N1CCN(CC(O)CN2C(=O)N(CC(=O)OC)C(=O)C2(c2ccccc2)c2ccccc2)CC1 (racemic)
// query Please produce an ascending ranking of these compounds based on Ks. The labels, placed in the requested order, form the answer.
// result B, C, A

----------
Species on record: Rattus norvegicus
methodSummary: Selectivity ratio of Ki for alpha1-adrenergic receptor in rat cerebral cortex membranes to Ki for 5-HT1A receptor in rat hippocampal membranes
Type: cell membranes
experimentalContext: Membrane
quantityName: Ratio

Answered examples (3):
{"molecule": "COc1ccccc1N1CCN(CC(O)CN2C(=O)N(CC(=O)O)C(=O)C2(c2ccccc2)c2ccccc2)CC1.Cl (racemic)", "measured": 8.35}
{"molecule": "COC(=O)CN1C(=O)N(CC(O)CN2CCN(c3ccccc3OC)CC2)C(c2ccccc2)(c2ccccc2)C1=O (racemic)", "measured": 2.29}
{"molecule": "CCOc1ccccc1N1CCN(CC(O)CN2C(=O)N(C)C(=O)C2(c2ccccc2)c2ccccc2)CC1 (racemic)", "measured": 17.4}

[P] CCOC(=O)C(C)N1C(=O)N(CC(O)CN2CCN(c3ccccc3OC)CC2)C(c2ccccc2)(c2ccccc2)C1=O (racemic)
[Q] COC(=O)C(C)N1C(=O)N(CC(O)CN2CCN(c3ccccc3OC)CC2)C(c2ccccc2)(c2ccccc2)C1=O (racemic)
// query // task: argmin of Ratio over [ P , Q ] Use the label to indicate which entry you chose.
// result Q
(Q: 1, P: 4.52)
